Cited source for all entries: PubChem BioAssay AID2060905

Below is a list of entries, each paired with its recorded viability, T/C value.
# System: 282377-053-R-J1-PDC complex spheroid viability
# protocol-text: Anticancer human tumor 282377-053-R-J1-PDC patient-derived colon adenocarcinoma cell line growth inhibition [RAS]
# condition-details: second compound 0.00949 µM; first compound 0.01 µM; stronger effect = lower value

>>> experimental_value("Nc1ccn(C2OC(CO)C(O)C2(F)F)c(=O)n1 (centres undefined) + CCn1c(-c2cc(N3CCN(C)CC3)cnc2C(C)OC)c2c3cc(ccc31)-c1csc(n1)CC(NC(=O)C1CC1C)C(=O)N1CCCC(N1)C(=O)OCC(C)(C)C2")
"95.9%"
>>> experimental_value("O=C(c1ccc(F)c(F)c1Nc1ccc(I)cc1F)N1CC(O)([C@@H]2CCCCN2)C1 + CCn1c(-c2cccnc2C(C)OC)c2c3cc(ccc31)N1CCOC(CC(NC(=O)C(C(C)C)N(C)C(=O)C3(F)CCN(C(=O)C#CC(C)(C)N(C)C)CC3)C(=O)N3CCCC(N3)C(=O)OCC(C)(C)C2)C1")
"90%"
>>> experimental_value("C=CC(=O)N1CCN(c2nc(OCC3CCCN3C)nc3c(F)c(-c4nc(N)cc(C)c4C(F)(F)F)c(Cl)cc23)C(C)C1 (centres undefined) + CCn1c(-c2cccnc2C(C)OC)c2c3cc(ccc31)N1CCOC(CC(NC(=O)C(C(C)C)N(C)C(=O)C3(F)CCN(C(=O)C#CC(C)(C)N(C)C)CC3)C(=O)N3CCCC(N3)C(=O)OCC(C)(C)C2)C1")
"92.7%"

Now look at this entry.
*Q* What value of measured viability, T/C is listed for CCN1CCN(Cc2ccc(Nc3ncc(F)c(-c4cc(F)c5nc(C)n(C(C)C)c5c4)n3)nc2)CC1 + CCn1c(-c2cc(N3CCN(C)CC3)cnc2C(C)OC)c2c3cc(ccc31)-c1csc(n1)CC(NC(=O)C1CC1C)C(=O)N1CCCC(N1)C(=O)OCC(C)(C)C2 ?
*A* 126%

====

# Test system: 282377-053-R-J1-PDC complex spheroid viability
# protocol-text: Anticancer human tumor 282377-053-R-J1-PDC cell line growth inhibition [RAS];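 note: spheroids exposed to agents for seven days before readout; luminescence viability as percent of DMSO vehicle control wells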
# condition-details: second compound 0.00949 µM; first compound 0.00316 µM; stronger effect = lower value
# Description: RAS pathway inhibitors in Combinations in Complex Spheroids A high-throughput screen of multi-cell type tumor spheroids was designed to identify active combinations of RAS pathway inhibitors and targeted small molecules. Complex spheroids include a stromal component modeled by human endothelial cells (HUVEC) and fibroblasts modeled by human mesenchymal stem cells (MSCs). […] Compounds. […] If the clinical Cmax for an agent had not been determined, the highest concentration tested was 10 microM. […]
observed-property: viability, T/C

>>> experimental_value("O=C(c1ccc(F)c(F)c1Nc1ccc(I)cc1F)N1CC(O)([C@@H]2CCCCN2)C1 + CCn1c(-c2cc(N3CCN(C)CC3)cnc2C(C)OC)c2c3cc(ccc31)-c1csc(n1)CC(NC(=O)C1CC1C)C(=O)N1CCCC(N1)C(=O)OCC(C)(C)C2")
"68%"
>>> experimental_value("Nc1ccn(C2OC(CO)C(O)C2(F)F)c(=O)n1 (centres undefined) + CCn1c(-c2cccnc2C(C)OC)c2c3cc(ccc31)N1CCOC(CC(NC(=O)C(C(C)C)N(C)C(=O)C3(F)CCN(C(=O)C#CC(C)(C)N(C)C)CC3)C(=O)N3CCCC(N3)C(=O)OCC(C)(C)C2)C1")
"106%"
>>> experimental_value("CC(C)n1nc(-c2ccc3oc(N)nc3c2)c2c(N)ncnc21 + CCn1c(-c2cc(N3CCN(C)CC3)cnc2C(C)OC)c2c3cc(ccc31)-c1csc(n1)CC(NC(=O)C1CC1C)C(=O)N1CCCC(N1)C(=O)OCC(C)(C)C2")
"93.8%"

*Q* What value of measured viability, T/C is listed for C=CC(=O)N1CCN(c2nc(OCC3CCCN3C)nc3c(F)c(-c4nc(N)cc(C)c4C(F)(F)F)c(Cl)cc23)C(C)C1 (centres undefined) + CCn1c(-c2cccnc2C(C)OC)c2c3cc(ccc31)N1CCOC(CC(NC(=O)C(C(C)C)N(C)C(=O)C3(F)CCN(C(=O)C#CC(C)(C)N(C)C)CC3)C(=O)N3CCCC(N3)C(=O)OCC(C)(C)C2)C1 ?
*A* 96.2%

====

# Test system: 282377-053-R-J1-PDC complex spheroid viability
# protocol-text: Anticancer human tumor 282377-053-R-J1-PDC cell line growth inhibition [RAS];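 note: spheroids exposed to agents for seven days before readout; luminescence viability as percent of DMSO vehicle control wells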
# condition-details: second compound 0.0316 µM; first compound 0.1 µM; stronger effect = lower value
Output rule met for records whose viability, T/C is lower than 70%, rule not met for records at or above 70%.

>>> assigned_label("CC1(O)CCCC1n1c(=O)c(C(F)F)cc2cnc(NC3CCN(S(C)(=O)=O)CC3)nc21 (configuration not stated) + C#Cc1c(F)ccc2cc(O)cc(-c3ncc4c(N5CC6CCC(C5)N6)nc(OCC56CCCN5CC(F)C6)nc4c3F)c12")
"rule not met"
>>> assigned_label("CCN1CCN(Cc2ccc(Nc3ncc(F)c(-c4cc(F)c5nc(C)n(C(C)C)c5c4)n3)nc2)CC1 + C#Cc1c(F)ccc2cc(O)cc(-c3ncc4c(N5CC6CCC(C5)N6)nc(OCC56CCCN5CC(F)C6)nc4c3F)c12")
"rule not met"
>>> assigned_label("CC(=O)OC12COC1CC(O)C1(C)C(=O)C(O)C3=C(C)C(OC(=O)C(O)C(NC(=O)OC(C)(C)C)c4ccccc4)CC(O)(C(OC(=O)c4ccccc4)C21)C3(C)C (configuration not stated) + C#Cc1c(F)ccc2cc(O)cc(-c3ncc4c(N5CC6CCC(C5)N6)nc(OCC56CCCN5CC(F)C6)nc4c3F)c12")
"rule met"
>>> assigned_label("C=CC(=O)Nc1cc(Nc2nccc(-c3cn(C)c4ccccc34)n2)c(OC)cc1N(C)CCN(C)C + C#Cc1c(F)ccc2cc(O)cc(-c3ncc4c(N5CC6CCC(C5)N6)nc(OCC56CCCN5CC(F)C6)nc4c3F)c12")
"rule not met"
>>> assigned_label("C[C@@H](NC(=O)c1ncnc(N)c1Cl)c1ncc(C(=O)Nc2cc(C(F)(F)F)c(Cl)cn2)s1 + C#Cc1c(F)ccc2cc(O)cc(-c3ncc4c(N5CC6CCC(C5)N6)nc(OCC56CCCN5CC(F)C6)nc4c3F)c12")
"rule not met"

Now let's try a different one.
*Q* Here's an entry: CC(C)n1nc(-c2ccc3oc(N)nc3c2)c2c(N)ncnc21 + C=CC(=O)N1CCN(c2nc(OCC3CCCN3C)nc3c(F)c(-c4nc(N)cc(C)c4C(F)(F)F)c(Cl)cc23)C(C)C1 . Is its viability, T/C below 70%?
*A* rule met

====

# Test system: 282377-053-R-J1-PDC complex spheroid viability
# protocol-text: Anticancer human tumor 282377-053-R-J1-PDC cell line growth inhibition [RAS];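 note: spheroids exposed to agents for seven days before readout; luminescence viability as percent of DMSO vehicle control wells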
# condition-details: second compound 0.3 µM; first compound 0.00949 µM; stronger effect = lower value
Below is a list of entries, each paired with its recorded viability, T/C value.
Give the value, in units of %, as a plain number.

Example results:
>>> experimental_value("CC1(C)CCC(Nc2ncc(C(F)(F)F)c(-c3c[nH]c4c(P(C)(C)=O)c(C#N)ccc34)n2)CN1 (centres undefined) + CCn1c(-c2cccnc2C(C)OC)c2c3cc(ccc31)N1CCOC(CC(NC(=O)C(C(C)C)N(C)C(=O)C3(F)CCN(C(=O)C#CC(C)(C)N(C)C)CC3)C(=O)N3CCCC(N3)C(=O)OCC(C)(C)C2)C1")
110
>>> experimental_value("CCc1c2c(nc3ccc(O)cc13)-c1cc3c(c(=O)n1C2)COC(=O)[C@]3(O)CC + CCn1c(-c2cc(N3CCN(C)CC3)cnc2C(C)OC)c2c3cc(ccc31)-c1csc(n1)CC(NC(=O)C1CC1C)C(=O)N1CCCC(N1)C(=O)OCC(C)(C)C2")
161
>>> experimental_value("CC1(C)CCC(Nc2ncc(C(F)(F)F)c(-c3c[nH]c4c(P(C)(C)=O)c(C#N)ccc34)n2)CN1 (centres undefined) + CCn1c(-c2cc(N3CCN(C)CC3)cnc2C(C)OC)c2c3cc(ccc31)-c1csc(n1)CC(NC(=O)C1CC1C)C(=O)N1CCCC(N1)C(=O)OCC(C)(C)C2")
145

Now look at this entry.
*Q* What value of measured viability, T/C is listed for CCc1c2c(nc3ccc(O)cc13)-c1cc3c(c(=O)n1C2)COC(=O)[C@]3(O)CC + CCn1c(-c2cccnc2C(C)OC)c2c3cc(ccc31)N1CCOC(CC(NC(=O)C(C(C)C)N(C)C(=O)C3(F)CCN(C(=O)C#CC(C)(C)N(C)C)CC3)C(=O)N3CCCC(N3)C(=O)OCC(C)(C)C2)C1 ?
*A* 149

====

Below is a list of entries, each paired with its recorded viability, T/C value.
# System: 282377-053-R-J1-PDC complex spheroid viability
# protocol-text: Anticancer human tumor 282377-053-R-J1-PDC cell line growth inhibition [RAS];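 note: spheroids exposed to agents for seven days before readout; luminescence viability as percent of DMSO vehicle control wells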
# condition-details: second compound 0.1 µM; first compound 3.16 µM; stronger effect = lower value
Give the value, in units of %, as a plain number.

>>> experimental_value("CC(=O)OC12COC1CC(O)C1(C)C(=O)C(O)C3=C(C)C(OC(=O)C(O)C(NC(=O)OC(C)(C)C)c4ccccc4)CC(O)(C(OC(=O)c4ccccc4)C21)C3(C)C (stereo not drawn) + C=CC(=O)N1CCN(c2nc(OCC3CCCN3C)nc3c(F)c(-c4nc(N)cc(C)c4C(F)(F)F)c(Cl)cc23)C(C)C1")
38.4
>>> experimental_value("CCC(CC)c1cc(NC2CCC(N)C2)n2nccc2n1 (stereo not drawn) + C=CC(=O)N1CCN(c2nc(OCC3CCCN3C)nc3c(F)c(-c4nc(N)cc(C)c4C(F)(F)F)c(Cl)cc23)C(C)C1")
7.78

Now look at this entry.
*Q* What value of measured viability, T/C is listed for C[C@@H](NC(=O)c1ncnc(N)c1Cl)c1ncc(C(=O)Nc2cc(C(F)(F)F)c(Cl)cn2)s1 + C#Cc1c(F)ccc2cc(O)cc(-c3ncc4c(N5CC6CCC(C5)N6)nc(OCC56CCCN5CC(F)C6)nc4c3F)c12 ?
*A* 79.6
